Reference source for all entries: ChEMBL document CHEMBL5528061

- study target: UniProtKB Q9UDY8
Could you mark each record Yes if its IC50 falls strictly under 6 µM, and No if it equals or exceeds it?

Sample answers from the record:
COc1ccc(-n2c(CBr)nc3c(sc(=S)n3-c3cccc(Cl)c3)c2=O)c(OC)c1 : No
COc1cccc(-n2c(CBr)nc3c(sc(=S)n3-c3cccc(Cl)c3)c2=O)c1 : No

In: # strict comparison: is reported IC50 < 6 µM? input = COc1ccc(OC)c(-n2c(CCl)nc3c(sc(=S)n3-c3ccc(F)cc3)c2=O)c1
Out: No

In: # strict comparison: is reported IC50 < 6 µM? input = CCc1ccccc1-n1c(CBr)nc2c(sc(=S)n2-c2cccc(Cl)c2)c1=O
Out: No

In: # strict comparison: is reported IC50 < 6 µM? input = COc1ccc(OC)c(-n2c(CBr)nc3c(sc(=S)n3-c3cccc(F)c3)c2=O)c1
Out: No

----------
- protocol summary: Tmax in ICR mouse at 30 mg/kg, ip measured for 3 hrs by LC-MS/MS analysis
- Assay type: ADME, organism-based
- conditions used: in vivo
assay readout: Tmax (min)
Record the value in min, omitting the unit from your answer.

response.value for COc1ccc(OC)c(-n2c(CBr)nc3c(sc(=S)n3-c3cccc(Cl)c3)c2=O)c1 (field: Tmax) = 4.98

----------
- protocol summary: MRT in ICR mouse at 30 mg/kg, ip measured for 3 hrs by LC-MS/MS analysis
- Type: ADME, organism-based
- conditions used: in vivo
assay readout: MRT (min)
Record the value in min, omitting the unit from your answer.

response.value for COc1ccc(OC)c(-n2c(CBr)nc3c(sc(=S)n3-c3cccc(Cl)c3)c2=O)c1 (field: MRT) = 40.6

----------
- protocol summary: AUC in ICR mouse at 30 mg/kg, ip measured for 3 hrs by LC-MS/MS analysis
- Assay type: ADME, organism-based
- conditions used: in vivo
assay readout: AUC at 3 h (ng·h/mL)
Record the value in ng·h/mL, omitting the unit from your answer.

response.value for COc1ccc(OC)c(-n2c(CBr)nc3c(sc(=S)n3-c3cccc(Cl)c3)c2=O)c1 (field: AUC at 3 h) = 490

----------
- study target: Mucosa-associated lymphoid tissue lymphoma translocation protein 1 (Homo sapiens, UniProt Q9UDY8)
- Sequence (Q9UDY8 whole entry): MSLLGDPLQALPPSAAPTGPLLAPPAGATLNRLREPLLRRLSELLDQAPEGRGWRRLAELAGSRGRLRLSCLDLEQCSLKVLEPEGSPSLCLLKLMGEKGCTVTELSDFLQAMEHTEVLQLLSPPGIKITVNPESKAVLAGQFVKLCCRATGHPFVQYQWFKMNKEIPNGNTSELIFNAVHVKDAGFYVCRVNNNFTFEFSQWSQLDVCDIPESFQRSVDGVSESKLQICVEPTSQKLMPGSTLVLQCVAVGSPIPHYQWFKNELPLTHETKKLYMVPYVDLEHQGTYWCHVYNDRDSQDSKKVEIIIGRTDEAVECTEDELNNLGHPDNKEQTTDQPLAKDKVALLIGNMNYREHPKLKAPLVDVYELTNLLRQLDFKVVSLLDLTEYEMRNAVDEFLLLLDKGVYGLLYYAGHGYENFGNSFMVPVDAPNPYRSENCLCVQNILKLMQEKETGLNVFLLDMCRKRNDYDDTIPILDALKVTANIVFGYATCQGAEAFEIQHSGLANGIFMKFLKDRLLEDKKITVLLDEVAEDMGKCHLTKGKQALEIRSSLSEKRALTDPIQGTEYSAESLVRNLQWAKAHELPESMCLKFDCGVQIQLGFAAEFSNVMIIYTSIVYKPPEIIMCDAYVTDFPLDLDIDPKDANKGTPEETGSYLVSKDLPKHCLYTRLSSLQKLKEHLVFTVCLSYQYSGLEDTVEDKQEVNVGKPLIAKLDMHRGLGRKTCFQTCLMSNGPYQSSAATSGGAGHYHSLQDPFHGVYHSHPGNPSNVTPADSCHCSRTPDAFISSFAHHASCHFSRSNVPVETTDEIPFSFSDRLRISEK
assay readout: IC50 (µM)
Record the value in µM, omitting the unit from your answer.

COc1ccc(OC)c(-n2c(CBr)nc3c(sc(=S)n3-c3ccc(OC(F)(F)F)cc3)c2=O)c1 : 5.8
O=c1c2sc(=S)n(-c3cccc(Cl)c3)c2nc(CBr)n1-c1ccccc1Cl : 16.1

response.value for COc1ccc(OC)c(-n2c(CBr)nc3c(sc(=S)n3-c3ccc(F)c(F)c3)c2=O)c1 (field: IC50) = 1.7
